target: HER2 (Homo sapiens, UniProt P04626)
endpoint-label: IC50

q: Entry under review: "COc1cc2c(Oc3ccc4[nH]c(C)cc4c3F)ccnc2cc1OCC1(N)CC1.Cl.Cl" . Reported IC50?
a: > 2000 nM

====

tested on: panel of tumor cells; experiment: FBS‐stimulated tumor cell proliferation; assay type: cell-based, human; conditions: Homo sapiens, 72 h, read-out: IC50 FBS‐stimulated tumor cell proliferation
pIC50: −log10 of the molar value.
endpoint-label: pIC50

q: Entry under review: COc1cc2c(Oc3ccc4[nH]c(C)cc4c3F)ccnc2cc1OCC1(N)CC1.Cl.Cl [Anlotinib] . Reported pIC50?
a: 4.90 to 5.52

====

target: c‐Kit (Homo sapiens, UniProt P10721)
Sequence (P10721 26-976): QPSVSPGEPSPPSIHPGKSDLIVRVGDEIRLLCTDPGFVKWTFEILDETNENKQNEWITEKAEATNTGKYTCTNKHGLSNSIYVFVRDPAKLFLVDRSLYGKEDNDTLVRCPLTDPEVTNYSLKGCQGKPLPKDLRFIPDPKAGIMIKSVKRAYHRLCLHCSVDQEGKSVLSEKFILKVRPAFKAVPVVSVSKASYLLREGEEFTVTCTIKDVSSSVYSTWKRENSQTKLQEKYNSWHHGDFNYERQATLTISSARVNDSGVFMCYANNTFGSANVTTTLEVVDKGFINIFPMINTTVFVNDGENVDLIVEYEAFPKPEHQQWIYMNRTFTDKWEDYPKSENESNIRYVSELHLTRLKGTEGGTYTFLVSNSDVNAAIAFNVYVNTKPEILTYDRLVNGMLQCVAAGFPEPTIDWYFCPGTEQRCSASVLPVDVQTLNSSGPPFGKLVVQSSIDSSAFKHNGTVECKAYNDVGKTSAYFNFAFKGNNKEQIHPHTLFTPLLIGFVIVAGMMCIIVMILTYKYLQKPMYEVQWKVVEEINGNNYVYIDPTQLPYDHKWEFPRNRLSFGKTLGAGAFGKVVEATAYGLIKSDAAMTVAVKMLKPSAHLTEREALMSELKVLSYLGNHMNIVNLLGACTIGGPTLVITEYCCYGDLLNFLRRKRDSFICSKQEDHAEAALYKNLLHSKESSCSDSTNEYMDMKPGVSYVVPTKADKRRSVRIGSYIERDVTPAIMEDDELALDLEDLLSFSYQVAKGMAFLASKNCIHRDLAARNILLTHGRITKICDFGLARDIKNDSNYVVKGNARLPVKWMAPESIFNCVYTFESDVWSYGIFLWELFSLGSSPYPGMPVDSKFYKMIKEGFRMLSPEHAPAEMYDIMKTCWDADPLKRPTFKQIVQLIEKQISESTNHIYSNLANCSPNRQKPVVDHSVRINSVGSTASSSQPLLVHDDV
endpoint-label: IC50 (nM)
Write down the numeric answer in nM and omit the unit.

q: Value wanted: IC50 (c‐Kit (Homo sapiens, UniProt P10721)) of entry "COc1cc2c(Oc3ccc4[nH]c(C)cc4c3F)ccnc2cc1OCC1(N)CC1.Cl.Cl"
a: 14.8

====

tested on: HUVEC; experiment: FBS‐stimulated HUVEC proliferation; type: cell-based; conditions: Homo sapiens, 72 h, read-out: IC50 FBS‐stimulated HUVEC proliferation
endpoint-label: IC50 (nM)
Write down the numeric answer in nM and omit the unit.

q: Entry under review: "COc1cc2c(Oc3ccc4[nH]c(C)cc4c3F)ccnc2cc1OCC1(N)CC1.Cl.Cl" . Reported IC50?
a: 2000

====

target: VEGFR2 (Homo sapiens); assay: Tyrosine kinase ELISA, VEGFR2; conditions: IC50 VEGFR2 kinase, ELISA, recombinant tyrosine kinase, mean ± SD (n = 3)
Sequence (P35968 20-1356): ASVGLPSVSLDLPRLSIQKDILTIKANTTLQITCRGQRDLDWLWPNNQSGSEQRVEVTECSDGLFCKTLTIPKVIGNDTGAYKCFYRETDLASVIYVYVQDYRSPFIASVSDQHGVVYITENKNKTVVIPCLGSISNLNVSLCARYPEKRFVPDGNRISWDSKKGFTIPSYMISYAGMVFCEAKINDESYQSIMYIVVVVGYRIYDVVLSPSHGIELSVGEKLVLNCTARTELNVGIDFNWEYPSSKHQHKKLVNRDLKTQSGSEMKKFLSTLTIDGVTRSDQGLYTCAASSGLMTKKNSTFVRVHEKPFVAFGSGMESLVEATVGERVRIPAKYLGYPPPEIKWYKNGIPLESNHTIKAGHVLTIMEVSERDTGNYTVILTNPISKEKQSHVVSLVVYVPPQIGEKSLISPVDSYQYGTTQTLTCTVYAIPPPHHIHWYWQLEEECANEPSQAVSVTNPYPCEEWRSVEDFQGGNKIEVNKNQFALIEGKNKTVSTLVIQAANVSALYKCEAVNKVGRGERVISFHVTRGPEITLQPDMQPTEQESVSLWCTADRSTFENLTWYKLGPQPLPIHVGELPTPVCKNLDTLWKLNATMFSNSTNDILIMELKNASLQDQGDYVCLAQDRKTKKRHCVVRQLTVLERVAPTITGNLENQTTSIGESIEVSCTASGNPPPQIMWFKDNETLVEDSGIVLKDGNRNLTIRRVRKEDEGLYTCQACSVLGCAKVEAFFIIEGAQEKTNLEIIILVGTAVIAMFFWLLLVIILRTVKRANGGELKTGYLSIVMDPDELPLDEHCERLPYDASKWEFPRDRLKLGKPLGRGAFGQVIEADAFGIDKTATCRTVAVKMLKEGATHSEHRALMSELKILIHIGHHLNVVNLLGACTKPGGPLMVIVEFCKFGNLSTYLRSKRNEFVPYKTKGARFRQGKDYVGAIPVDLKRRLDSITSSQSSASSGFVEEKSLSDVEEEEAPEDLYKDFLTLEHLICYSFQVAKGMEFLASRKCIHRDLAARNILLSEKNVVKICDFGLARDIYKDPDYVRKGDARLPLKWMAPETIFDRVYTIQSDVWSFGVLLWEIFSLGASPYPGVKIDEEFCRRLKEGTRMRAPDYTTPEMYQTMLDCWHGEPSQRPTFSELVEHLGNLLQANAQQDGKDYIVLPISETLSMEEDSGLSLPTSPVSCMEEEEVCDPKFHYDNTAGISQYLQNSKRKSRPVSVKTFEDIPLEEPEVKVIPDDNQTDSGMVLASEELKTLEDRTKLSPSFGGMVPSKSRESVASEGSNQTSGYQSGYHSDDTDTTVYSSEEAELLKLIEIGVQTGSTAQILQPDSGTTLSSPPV
endpoint-label: IC50

q: Entry under review: "COc1cc2c(Oc3ccc4[nH]c(C)cc4c3F)ccnc2cc1OCC1(N)CC1.Cl.Cl" . Reported IC50?
a: < 1 nM

====

target: UniProt P08581; test: Tyrosine kinase ELISA, c‐Met; assay type: biochemical
Sequence (P08581 25-1390): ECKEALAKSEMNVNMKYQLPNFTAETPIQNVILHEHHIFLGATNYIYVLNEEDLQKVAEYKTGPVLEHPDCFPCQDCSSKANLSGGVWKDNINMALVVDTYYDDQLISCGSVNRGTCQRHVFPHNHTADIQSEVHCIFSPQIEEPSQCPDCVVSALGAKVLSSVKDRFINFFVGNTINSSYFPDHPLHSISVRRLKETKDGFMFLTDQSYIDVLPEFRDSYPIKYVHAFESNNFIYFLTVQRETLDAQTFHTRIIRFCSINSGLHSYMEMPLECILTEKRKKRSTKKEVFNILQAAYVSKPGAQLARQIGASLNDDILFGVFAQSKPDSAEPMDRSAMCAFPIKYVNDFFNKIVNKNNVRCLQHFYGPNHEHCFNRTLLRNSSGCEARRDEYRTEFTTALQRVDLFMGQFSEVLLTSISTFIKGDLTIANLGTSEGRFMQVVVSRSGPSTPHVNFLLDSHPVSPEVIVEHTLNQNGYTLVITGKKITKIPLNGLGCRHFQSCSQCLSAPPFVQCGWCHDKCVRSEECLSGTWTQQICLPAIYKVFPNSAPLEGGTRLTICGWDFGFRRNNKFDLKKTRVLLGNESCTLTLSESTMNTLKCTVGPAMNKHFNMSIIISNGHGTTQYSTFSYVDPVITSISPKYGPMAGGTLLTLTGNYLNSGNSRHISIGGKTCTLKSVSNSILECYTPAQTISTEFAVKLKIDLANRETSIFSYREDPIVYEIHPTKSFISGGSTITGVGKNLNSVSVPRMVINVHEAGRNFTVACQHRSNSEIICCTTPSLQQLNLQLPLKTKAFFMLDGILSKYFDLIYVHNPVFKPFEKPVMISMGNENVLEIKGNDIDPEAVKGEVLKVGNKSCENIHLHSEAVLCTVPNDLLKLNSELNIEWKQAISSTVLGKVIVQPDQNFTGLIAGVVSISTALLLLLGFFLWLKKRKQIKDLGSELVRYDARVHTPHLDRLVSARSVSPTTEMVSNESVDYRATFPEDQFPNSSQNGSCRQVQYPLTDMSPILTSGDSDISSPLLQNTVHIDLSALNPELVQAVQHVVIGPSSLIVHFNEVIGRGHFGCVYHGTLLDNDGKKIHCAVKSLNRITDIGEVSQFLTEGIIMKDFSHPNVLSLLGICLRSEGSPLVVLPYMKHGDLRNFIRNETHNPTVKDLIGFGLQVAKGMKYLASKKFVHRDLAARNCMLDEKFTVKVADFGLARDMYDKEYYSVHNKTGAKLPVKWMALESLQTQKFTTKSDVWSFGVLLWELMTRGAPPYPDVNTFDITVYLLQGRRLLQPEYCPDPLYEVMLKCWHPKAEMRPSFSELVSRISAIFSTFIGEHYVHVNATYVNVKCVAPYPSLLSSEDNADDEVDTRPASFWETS
pIC50: −log10 of the molar value.
endpoint-label: pIC50

q: Entry under review: "COc1cc2c(Oc3ccc4[nH]c(C)cc4c3F)ccnc2cc1OCC1(N)CC1.Cl.Cl" . Reported pIC50?
a: < 5.70

====

target: VEGFR1 (Homo sapiens, UniProt P17948)
Sequence (P17948 27-1338): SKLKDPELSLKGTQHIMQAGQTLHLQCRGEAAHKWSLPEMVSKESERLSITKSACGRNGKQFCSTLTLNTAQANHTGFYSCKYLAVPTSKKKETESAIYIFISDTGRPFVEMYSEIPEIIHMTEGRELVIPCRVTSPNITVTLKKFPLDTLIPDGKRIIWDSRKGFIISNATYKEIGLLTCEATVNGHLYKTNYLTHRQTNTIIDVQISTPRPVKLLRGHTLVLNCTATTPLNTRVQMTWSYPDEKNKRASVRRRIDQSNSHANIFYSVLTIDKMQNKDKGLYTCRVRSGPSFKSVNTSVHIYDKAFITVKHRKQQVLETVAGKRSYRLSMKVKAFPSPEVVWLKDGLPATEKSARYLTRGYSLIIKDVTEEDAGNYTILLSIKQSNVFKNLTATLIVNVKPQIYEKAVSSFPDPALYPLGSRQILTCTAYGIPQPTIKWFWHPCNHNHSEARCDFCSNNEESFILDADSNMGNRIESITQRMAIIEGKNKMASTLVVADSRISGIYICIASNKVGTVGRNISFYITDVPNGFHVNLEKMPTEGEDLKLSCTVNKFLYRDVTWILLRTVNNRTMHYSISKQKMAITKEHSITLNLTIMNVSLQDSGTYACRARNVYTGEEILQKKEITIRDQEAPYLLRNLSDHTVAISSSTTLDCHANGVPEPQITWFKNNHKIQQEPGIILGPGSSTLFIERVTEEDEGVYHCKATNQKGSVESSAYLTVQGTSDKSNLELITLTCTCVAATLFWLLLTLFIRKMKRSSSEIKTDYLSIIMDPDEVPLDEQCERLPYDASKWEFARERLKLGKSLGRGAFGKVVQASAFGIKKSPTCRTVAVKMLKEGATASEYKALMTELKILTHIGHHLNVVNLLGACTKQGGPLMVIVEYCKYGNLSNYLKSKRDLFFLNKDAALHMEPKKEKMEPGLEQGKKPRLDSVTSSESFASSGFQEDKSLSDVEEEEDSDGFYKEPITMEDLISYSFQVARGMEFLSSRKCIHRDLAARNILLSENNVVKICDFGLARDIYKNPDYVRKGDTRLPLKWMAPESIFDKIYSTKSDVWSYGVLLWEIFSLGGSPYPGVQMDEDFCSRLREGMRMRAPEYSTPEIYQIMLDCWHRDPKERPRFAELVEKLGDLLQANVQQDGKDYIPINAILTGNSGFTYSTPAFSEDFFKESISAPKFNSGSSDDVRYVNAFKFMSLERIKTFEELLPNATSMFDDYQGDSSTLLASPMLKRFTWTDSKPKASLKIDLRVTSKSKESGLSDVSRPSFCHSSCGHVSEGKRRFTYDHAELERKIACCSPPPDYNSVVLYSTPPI
endpoint-label: IC50 (nM)
Write down the numeric answer in nM and omit the unit.

q: Entry under review: COc1cc2c(Oc3ccc4[nH]c(C)cc4c3F)ccnc2cc1OCC1(N)CC1.Cl.Cl [Anlotinib] . Reported IC50?
a: 26.9

Source listed as paper PMC5891194.
